These entries and their values trace back to patent US20230159467A1.

experimental.details: Stability in mouse liver microsomes
Assay type: in vitro ADME
condition.notes: half-life
Form field: Stability in liver microsomes MLM (one value per entry).

Below are worked cases with known answers.
COC(=O)NS(=O)(=O)c1sc(CC(C)C)nc1-c1ccc(Cn2ccnc2C(C)(C)C)cc1 [Example 3] : >60 min
COC(=O)NS(=O)(=O)c1ccc(CC(C)C)cc1-c1ccc(Cn2ccnc2C(C)(C)C)cc1 [Example 1A] : >60 min

In: Data request, read-out Stability in liver microsomes MLM, for COC(=O)[N-]S(=O)(=O)c1ccc(CC(C)C)cc1-c1ccc(Cn2ccnc2C(C)(C)O)cc1.[K+] [Example 8B]
Out: >60 min

* * *

experimental.details: Stability in rat liver microsomes
Format: in vitro ADME
condition.notes: half-life
metric: Stability in liver microsomes RLM

Sample records with Stability in liver microsomes RLM:
COC(=O)NS(=O)(=O)c1ccc(CC(C)C)cc1-c1ccc(Cn2ccnc2C(C)(C)C)cc1 : >60 min
COC(=O)[N-]S(=O)(=O)c1sc(CC(C)C)cc1-c1ccc(Cn2ccnc2C(C)(C)C)cc1.[K+] [Example 12B] : >60 min

In: # query: Stability in liver microsomes RLM of entry `COC(=O)NS(=O)(=O)c1sc(CC(C)C)nc1-c1ccc(Cn2ccnc2C(C)(C)C)cc1`
Out: >60 min

* * *

test.target: CYP2C8 (Homo sapiens, UniProt P10632)
Sequence (P10632 whole entry): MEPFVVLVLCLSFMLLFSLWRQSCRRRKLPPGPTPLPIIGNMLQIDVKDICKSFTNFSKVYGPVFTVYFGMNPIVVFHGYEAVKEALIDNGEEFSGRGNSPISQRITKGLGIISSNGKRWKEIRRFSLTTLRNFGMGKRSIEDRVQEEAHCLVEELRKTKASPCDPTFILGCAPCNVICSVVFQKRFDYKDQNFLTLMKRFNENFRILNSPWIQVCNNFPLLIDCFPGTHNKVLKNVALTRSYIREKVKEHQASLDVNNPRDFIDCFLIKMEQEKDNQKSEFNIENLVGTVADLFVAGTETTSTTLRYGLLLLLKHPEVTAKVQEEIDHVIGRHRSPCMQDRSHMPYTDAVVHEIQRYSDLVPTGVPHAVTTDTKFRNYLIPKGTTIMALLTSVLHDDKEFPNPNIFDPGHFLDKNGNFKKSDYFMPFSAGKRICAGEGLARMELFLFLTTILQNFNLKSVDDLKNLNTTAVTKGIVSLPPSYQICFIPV
experimental.details: CYP450 inhibition assay, pooled human liver microsomes, amodiaquine substrate
condition.notes: both, human, pooled human liver microsomes, pH 7.4, probe amodiaquine
Entries and their measured inhibition at 10 min, 10 µM follow.
Give just the number in %; leave the unit off.

Some entries whose results are on file:
COC(=O)NS(=O)(=O)c1ccc(CC(C)C)cc1-c1ccc(Cn2ccnc2C(C)(C)F)cc1 : 70.3
CCCCOC(=O)[N-]S(=O)(=O)c1ccc(CC(C)C)cc1-c1ccc(Cn2ccnc2C(C)(C)O)cc1.[K+] : 68

Could you now look at the following molecule, please?
In: // map CCCCOC(=O)[N-]S(=O)(=O)c1sc(CC(C)C)cc1-c1ccc(Cn2ccnc2)cc1.[Na+] [Example 13, reference compound] to recorded inhibition at 10 min, 10 µM (system: CYP2C8 (Homo sapiens, UniProt P10632))
Out: 69
